These data points were gathered from patent US12139461B1.

System: Phosphodiesterase type 5 (PDE5) (Homo sapiens (Human)) | Read-out: IC50

- molecule: "O=S(=O)(c1ccc(Cl)c(Cl)c1)N1CCC(Cc2ccccc2)CC1 [Compound C19]"
  unit_label: "nM"
  IC50: 102
- molecule: "O=C(CN1CCC(Cc2ccccc2)CC1)NCc1ccccc1 [Compound C31]"
  unit_label: "nM"
  IC50: 74.9
- molecule: "Cc1cc(C)c(S(=O)(=O)N2CCC(Cc3ccccc3)CC2)c(C)c1 [Compound C26, 4-Benzyl-1-(mesitylsulfonyl)piperidine]"
  unit_label: "nM"
  IC50: 107
- molecule: "COc1ccc(S(=O)(=O)N2CCC(Cc3ccccc3)CC2)cc1OC [Compound C20]"
  unit_label: "nM"
  IC50: 63.3
- molecule: "O=S(=O)(c1ccc(Cl)cc1Cl)N1CCC(Cc2ccccc2)CC1 [Compound C21]"
  unit_label: "nM"
  IC50: 41.2
